property-measured: melting point

Worked examples follow.
1) c1ccc(C2CCNC3=NCCN32)cc1 (stereo not drawn) : 146 °C
2) CC(C)n1nc(-c2cc(Br)c(N)nc2-c2ccccc2)ccc1=O : 174 to 176 °C
3) O=C(C=Cc1cccnc1)C=Cc1cccnc1 : 148 to 149 °C
4) Cc1cc(C)c(N2CCCCC2=S)c(Cl)c1 : 147 to 148 °C
5) Cc1nc(-n2ccc(OCc3ccc(F)cc3)cc2=O)sc1C(=O)NCc1ccc(F)cc1 : 249 to 251 °C

Complete the entry with melting point for Cc1cccc2c1C=C(C(=O)O)C2C (stereo not drawn) 190 to 193 °C

Please list melting point recorded for the compound COc1ccc(S(=O)(=O)N2C(=O)C(O[Si](C)(C)C)(c3ccccc3C(F)(F)F)c3cc(Cl)ccc32)c(OC)c1 (stereo not drawn) 144 to 145 °C

Return melting point (reported value) for this compound: Cc1nc(C)c(Cl)c(NCc2ccc(Oc3ccc4ncc([N+](=O)[O-])n4n3)cn2)n1 194 to 198 °C

Hello, please tell me recorded melting point for this one: CCCCCCCCCCCCCCCCC(COC(C)=O)(COC(C)=O)NC(C)=O 84 to 86 °C

// Input: O=C1c2c(-c3ccccc3)noc2CCC1CCCN1CCC(O)(c2ccc(Cl)cc2)CC1 (stereo not drawn) . Output its melting point only. 147 to 148 °C

Return value of melting point for input CCC1CCc2c(sc3cc(OCc4ccccc4)ccc3c2=O)C1 (stereo not drawn) , no commentary. 94 °C

Report measured melting point; entry is O=C1CCC(C=Cc2ccc(-n3ccnc3)cc2)=NN1 230 to 231 °C

Read the entry CCOC(=O)c1c(Cn2cnnc2)nc2cc3c(cc2c1-c1ccc(OC)c(OC)c1)OCCO3 and write its reported melting point. 237 to 239 °C

---

Each entry below carries its reported melting point.

1. Cc1nnc(-c2ccc3occ(-c4cnn(Cc5ccccc5F)c4)c3c2)o1 : 142 to 143 °C

Quick one: give measured melting point for O=C1CN(CCCOc2ccc(NC(=O)c3cc(F)cc(N4CCCCC4)c3)c3ccccc23)CCN1 90 to 92 °C

For the compound COc1ccc(Nc2cc([N+](=O)[O-])ccc2C)c(C(=O)O)c1 , give its measured melting point value. 219 to 221 °C

Give recorded melting point. CCOC(=O)C1=Cc2cc(-c3ccc(S(C)(=O)=O)cc3)ccc2OCC1 150 to 153 °C

Report melting point, nothing else, for this compound: CC1CCCCC1OC(=O)c1cc(NCSc2ccccc2)ccc1Cl (configuration not stated) 143 to 144 °C

State its melting point: Cc1nc(-c2cccc(Cl)c2)c2cc(C(=O)c3ccc(Cl)cc3)ccc2n1 182 °C

Provide measured melting point value, entry: Cc1c(CC(c2ccccc2)c2ccccc2)ncn1C(c1ccccc1)(c1ccccc1)c1ccccc1 205 to 206 °C

For the compound COc1cc2c(cc1Nc1ncc(Cl)c(Nc3cc(C(N)=O)ccc3OC)n1)CCN(CC(=O)N(C)C)CC2 , report melting point. 163 to 174 °C

// fetch melting point given entry CCOC(=O)c1nc2ccccc2[nH]c1=O 169 to 170 °C

Report measured melting point; entry is O=C(CCCCN1CCOCC1)NNC(=O)N1Cc2ccccc2Oc2ccc(Cl)cc21 107 to 114 °C

Consider the compound O=C1CC(c2csc(-n3ccnc3)n2)=Nc2ccc(-c3ccc(F)cc3)cc2N1 and give its recorded melting point. 214 °C

Note melting point for the compound shown: CC(C)Oc1ccc2ccc(C(N)=O)c(OC(C)C)c2c1 145 to 146 °C

All values here come from a melting point compilation (Tetko et al.; mined from patent text by program, amines drawn as free bases though some values may be those of a salt).
